Molecular target: Recombinant human LSD1 (Homo sapiens, UniProt O60341)
Test: LSD1 inhibition assay (HTRF LSD1 Histone H3K4 mono-demethylation assay, me1->me0)
Format: biochemical
Conditions: 20 nM recombinant human LSD1, 95 nM H3K4(me1) biotinylated peptide, 15 min preincubation, 60 min at 25° C., read-out: LSD1 inhibition IC50 (nM range)
Where a name gives a salt, the structure may show the parent alone.
REPORTED METRIC: IC50

Item under review: N#Cc1ccc(-c2cc(CC3CNCCO3)ccc2-c2ccc(OCC3CC3)nc2)cc1F (centres unmarked) . Reported IC50?
100 to 1000 nM

Item under review: COc1ccc(-c2ccc(CN3[C@@H]4CC[C@H]3[C@@H](N)C4)cc2-c2ccc(C#N)c(F)c2)cc1F (racemic) . Reported IC50?
10 to 25 nM

Item under review: N#Cc1ccc(-c2cc(CC3CNCCO3)ccc2N2CCN(c3nccs3)CC2)cc1F (centres unmarked) . Reported IC50?
100 to 1000 nM

Item under review: N#Cc1ccc(-c2cccc(CC3CNCCO3)c2C2=CCCC2)cc1F (centres unmarked) . Reported IC50?
25 to 100 nM

Item under review: "N#Cc1ccc(-c2cccc(N3CCC(N)CC3)c2-c2ccns2)cc1F" . Reported IC50?
10 to 25 nM

Item under review: "N#Cc1ccc(-c2cccc(CN3C[C@@H]4C[C@@H](N)[C@H]3C4)c2-c2cncs2)cc1F" . Reported IC50?
10 to 25 nM

Item under review: N#Cc1ccc(-c2cc(CC3CNCCO3)ccc2-c2ccc(N3CCCC3)nc2)cc1F (centres unmarked) . Reported IC50?
25 to 100 nM

Item under review: N#Cc1ccc(-c2cccc(CN3C[C@]4(N)CC[C@H]3C4)c2-c2ccns2)cc1F [Example 171, hydrochloride] . Reported IC50?
10 to 25 nM

Item under review: N#Cc1ccc(-c2cccc(CC3CNCCO3)c2-n2cccn2)cc1F (centres unmarked) . Reported IC50?
> 1000 nM

Item under review: N#Cc1ccc(-c2cccc(CN3CC4CNCC3C4)c2Cl)cc1F (centres unmarked) . Reported IC50?
100 to 1000 nM

Item under review: N#Cc1ccc(-c2cccc(C[C@@H]3CNCCO3)c2-c2ocnc2F)cc1F (single isomer, unassigned) . Reported IC50?
< 10 nM

Item under review: N#Cc1ccc(-c2cccc(CN3CCC4(CCCN4)C3)c2C2CC2)cc1F (centres unmarked) . Reported IC50?
100 to 1000 nM

Item under review: N#Cc1ccc(-c2ccc(F)c(CN3[C@@H]4CC[C@H]3[C@@H](N)C4)c2C2CC2)cc1F (racemic) . Reported IC50?
10 to 25 nM

Item under review: COCC1CCN(c2ccc(CC3CNCCCO3)cc2-c2ccc(C#N)c(F)c2)CC1 (centres unmarked) . Reported IC50?
10 to 25 nM

Item under review: Cc1cccc(-c2ccc(CN3[C@@H]4CC[C@H]3[C@@H](N)C4)cc2-c2ccc(C#N)c(F)c2)n1 (racemic) . Reported IC50?
25 to 100 nM

Item under review: N#Cc1ccc(-c2cccc(CN3[C@@H]4CC[C@H]3[C@@H](N)C4)c2N2CCCC2)cc1F (racemic) . Reported IC50?
100 to 1000 nM

Item under review: "Cn1nc2ccc(-c3ccc(CN4C[C@@]5(N)CC[C@@H]4C5)cc3-c3ccc(C#N)c(F)c3)cc2c1Cl" . Reported IC50?
10 to 25 nM

Item under review: CN1CCC12CCN(Cc1c(F)ccc(-c3ccc(C#N)c(F)c3)c1Cl)C2 (centres unmarked) . Reported IC50?
100 to 1000 nM

Item under review: "CN(C)C1CCN(c2cccc(-c3ccc(C#N)c(F)c3)c2-c2cnco2)CC1" . Reported IC50?
25 to 100 nM

Item under review: "CC(C)C1(O)CCN(c2ccc(CN3C[C@]4(N)CC[C@H]3C4)cc2-c2ccc(C#N)c(F)c2)CC1" . Reported IC50?
10 to 25 nM

Item under review: N#Cc1ccc(-c2cc(C[C@@H]3CNCCO3)ccc2N2CCC2)cc1F (single isomer, unassigned) . Reported IC50?
100 to 1000 nM

Item under review: N#Cc1ccc(-c2cc(CN3[C@@H]4CC[C@H]3[C@@H](N)C4)ccc2CC2COC2)cc1F (racemic) . Reported IC50?
100 to 1000 nM

Item under review: N#Cc1ccc(-c2cccc(CN3[C@@H]4CC[C@H]3[C@@H](N)C4)c2-c2ccsc2)cc1F (racemic) . Reported IC50?
25 to 100 nM

Item under review: N#Cc1ccc(-c2cc(CC3CNCCO3)ccc2N2CC3(CCOC3)C2)cc1F (centres unmarked) . Reported IC50?
100 to 1000 nM

Item under review: N#Cc1ccc(-c2cc(C3CNCCO3)ccc2N2CCCCC2)cc1F (centres unmarked) . Reported IC50?
100 to 1000 nM

Item under review: N#Cc1ccc(-c2cccc(CC3CNCCO3)c2-c2ccns2)cc1F (centres unmarked) . Reported IC50?
10 to 25 nM

---

Target: Recombinant human LSD1 (Homo sapiens)
Test: LSD1 inhibition assay (HTRF LSD1 Histone H3K4 mono-demethylation assay, me1->me0)
Format: biochemical
Conditions: 20 nM recombinant human LSD1, 95 nM H3K4(me1) biotinylated peptide, 15 min preincubation, 60 min at 25° C., read-out: LSD1 inhibition IC50 (nM range)
I'd be grateful if you could share measured IC50 for these entries.

Item under review: CC(C)(c1ccc(N2CCC2)c(-c2ccc(C#N)c(F)c2)c1)C1CNCCO1 (stereo not drawn) . Reported IC50?
> 1000 nM

Item under review: Cc1c(CN2[C@@H]3CC[C@H]2[C@@H](N)C3)cccc1-c1ccc(C#N)c(F)c1 (racemic) . Reported IC50?
100 to 1000 nM

Item under review: COCC1(O)CCN(c2ccc(CC3CNCCO3)cc2-c2ccc(C#N)c(F)c2)CC1 (stereo not drawn) . Reported IC50?
100 to 1000 nM

Item under review: COc1ccc(C2CN(c3ccc(CC4CNCCO4)cc3-c3ccc(C#N)c(F)c3)C2)cn1 (stereo not drawn) . Reported IC50?
100 to 1000 nM

Item under review: N#Cc1ccc(-c2cc(CN3[C@@H]4CC[C@H]3[C@@H](N)C4)ccc2OCC2CC2)cc1F (racemic) . Reported IC50?
10 to 25 nM

Item under review: CN1CCC12CCN(Cc1c(F)ccc(-c3ccc(C#N)c(F)c3)c1N1CCC1)C2 (stereo not drawn) . Reported IC50?
25 to 100 nM

---

I'd be grateful if you could share measured IC50 for these entries.
Target: Recombinant human LSD1 (Homo sapiens, UniProt O60341)
Test: LSD1 inhibition assay (HTRF LSD1 Histone H3K4 mono-demethylation assay, me1->me0)
Type: biochemical
Conditions: 20 nM recombinant human LSD1, 95 nM H3K4(me1) biotinylated peptide, 15 min preincubation, 60 min at 25° C., read-out: LSD1 inhibition IC50 (nM range)

Please provide the recorded IC50 for CCOCC1(O)CCN(c2ccc(CC3CNCCO3)cc2-c2ccc(C#N)c(F)c2)CC1 (stereo not drawn) [Example 63] , tested on Recombinant human LSD1 (Homo sapiens, UniProt O60341).
100 to 1000 nM

Please provide the recorded IC50 for N#Cc1ccc(-c2cc(CN3[C@@H]4CC[C@H]3[C@@H](N)C4)ccc2OC[C@@H]2CCCOC2)cc1F (racemic) [Example 231] , tested on Recombinant human LSD1 (Homo sapiens, UniProt O60341).
10 to 25 nM

Please provide the recorded IC50 for N#Cc1ccc(-c2cccc(N3CCC(N)CC3)c2-c2cncs2)cc1F [Example 115] , tested on Recombinant human LSD1 (Homo sapiens, UniProt O60341).
10 to 25 nM

Please provide the recorded IC50 for N#Cc1ccc(-c2cc(CN3[C@@H]4CC[C@H]3[C@@H](N)C4)ccc2N2CCCCC2)cc1F (racemic) [Example 255] , tested on Recombinant human LSD1 (Homo sapiens, UniProt O60341).
10 to 25 nM

Please provide the recorded IC50 for CN[C@@H]1C[C@@H]2CC[C@H]1N2Cc1cccc(-c2ccc(C#N)c(F)c2)c1-c1ccns1 (single isomer, unassigned) [Example 190] , tested on Recombinant human LSD1 (Homo sapiens, UniProt O60341).
< 10 nM

Please provide the recorded IC50 for N#Cc1ccc(-c2cccc(CN3CC[C@@H]4NCC[C@@H]43)c2C2CC2)cc1F [Example 273] , tested on Recombinant human LSD1 (Homo sapiens, UniProt O60341).
25 to 100 nM

Please provide the recorded IC50 for N#Cc1ccc(-c2cccc(C[C@@H]3CNCCO3)c2-c2ccno2)cc1F (single isomer, unassigned) [Example 13] , tested on Recombinant human LSD1 (Homo sapiens, UniProt O60341).
10 to 25 nM

Please provide the recorded IC50 for CC(C)C1(O)CCN(c2ccc(CC3CNCCO3)cc2-c2ccc(C#N)c(F)c2)C1 (stereo not drawn) [Example 66] , tested on Recombinant human LSD1 (Homo sapiens, UniProt O60341).
100 to 1000 nM

Please provide the recorded IC50 for C[C@]1(N)CCN(Cc2cccc(-c3ccc(C#N)c(F)c3)c2-c2ccns2)C1 [Example 302] , tested on Recombinant human LSD1 (Homo sapiens, UniProt O60341).
< 10 nM

Please provide the recorded IC50 for CC(C)N[C@@H]1C[C@@H]2CC[C@H]1N2Cc1cccc(-c2ccc(C#N)c(F)c2)c1C1CC1 (single isomer, unassigned) [Example 248] , tested on Recombinant human LSD1 (Homo sapiens, UniProt O60341).
100 to 1000 nM

Please provide the recorded IC50 for N#Cc1ccc(-c2cccc(CN3C[C@]4(N)CC[C@H]3C4)c2-c2cnco2)cc1F [Example 335] , tested on Recombinant human LSD1 (Homo sapiens, UniProt O60341).
< 10 nM

Please provide the recorded IC50 for N#Cc1ccc(-c2cccc(CN3[C@H]4CC[C@@H]3[C@H](N)C4)c2-c2ccns2)cc1 (single isomer, unassigned) [Example 187] , tested on Recombinant human LSD1 (Homo sapiens, UniProt O60341).
10 to 25 nM

Please provide the recorded IC50 for N#Cc1ccc(-c2cc(CC3CNCCO3)ccc2N2CCN(CC(F)F)CC2)cc1F (stereo not drawn) [Example 105] , tested on Recombinant human LSD1 (Homo sapiens, UniProt O60341).
100 to 1000 nM

Please provide the recorded IC50 for N#Cc1ccc(-c2cccc(CC3CNCCO3)c2-c2ncco2)cc1F (stereo not drawn) [Example 65] , tested on Recombinant human LSD1 (Homo sapiens, UniProt O60341).
> 1000 nM

Please provide the recorded IC50 for CC1(C)CN(Cc2cccc(-c3ccc(C#N)c(F)c3)c2C2CC2)CC1N (stereo not drawn) [Example 278] , tested on Recombinant human LSD1 (Homo sapiens, UniProt O60341).
100 to 1000 nM

Please provide the recorded IC50 for N#Cc1ccc(-c2cccc(CN3CC4(CCN4)C3)c2Cl)cc1F [Example 292] , tested on Recombinant human LSD1 (Homo sapiens, UniProt O60341).
> 1000 nM

Please provide the recorded IC50 for CC(C)C1(O)CCN(c2ccc(CC3CNCCO3)cc2-c2ccc(C#N)c(F)c2)CC1 (stereo not drawn) [Example 79] , tested on Recombinant human LSD1 (Homo sapiens, UniProt O60341).
10 to 25 nM

Please provide the recorded IC50 for Cn1cc(-c2c(CC3CNCCO3)cccc2-c2ccc(C#N)c(F)c2)cn1 (stereo not drawn) [Example 153] , tested on Recombinant human LSD1 (Homo sapiens, UniProt O60341).
25 to 100 nM

Please provide the recorded IC50 for COC1CCN(c2ccc(CN3[C@@H]4CC[C@H]3[C@@H](N)C4)cc2-c2ccc(C#N)c(F)c2)CC1 (racemic) [Example 260] , tested on Recombinant human LSD1 (Homo sapiens, UniProt O60341).
10 to 25 nM

Please provide the recorded IC50 for N#Cc1ccc(-c2cc(CC3CNCCO3)ccc2C2CCCO2)cc1F (stereo not drawn) [Example 145] , tested on Recombinant human LSD1 (Homo sapiens, UniProt O60341).
> 1000 nM

Please provide the recorded IC50 for N#Cc1ccc(-c2cccc(CC3CNCCO3)c2-c2cncs2)cc1F (stereo not drawn) [Example 48] , tested on Recombinant human LSD1 (Homo sapiens, UniProt O60341).
10 to 25 nM

Please provide the recorded IC50 for Cc1cc(CN2C[C@@H]3[C@@H](N)[C@@H]3C2)c(Cl)c(-c2ccc(C#N)c(F)c2)c1 [Example 347] , tested on Recombinant human LSD1 (Homo sapiens, UniProt O60341).
100 to 1000 nM

Please provide the recorded IC50 for N#Cc1ccc(-c2cc(Cl)cc(CN3[C@@H]4CC[C@H]3[C@@H](N)C4)c2-c2cncs2)cc1F (racemic) [Example 268] , tested on Recombinant human LSD1 (Homo sapiens, UniProt O60341).
10 to 25 nM

Please provide the recorded IC50 for N#Cc1ccc(-c2cc(CN3CC4(CNCCO4)C3)ccc2N2CCCC2)cc1 [Example 343] , tested on Recombinant human LSD1 (Homo sapiens, UniProt O60341).
> 1000 nM
